- SYSTEM UNDER TEST: mGlu3 receptor (Rattus norvegicus (Rat), UniProt P31422)
- Sequence (P31422 23-879): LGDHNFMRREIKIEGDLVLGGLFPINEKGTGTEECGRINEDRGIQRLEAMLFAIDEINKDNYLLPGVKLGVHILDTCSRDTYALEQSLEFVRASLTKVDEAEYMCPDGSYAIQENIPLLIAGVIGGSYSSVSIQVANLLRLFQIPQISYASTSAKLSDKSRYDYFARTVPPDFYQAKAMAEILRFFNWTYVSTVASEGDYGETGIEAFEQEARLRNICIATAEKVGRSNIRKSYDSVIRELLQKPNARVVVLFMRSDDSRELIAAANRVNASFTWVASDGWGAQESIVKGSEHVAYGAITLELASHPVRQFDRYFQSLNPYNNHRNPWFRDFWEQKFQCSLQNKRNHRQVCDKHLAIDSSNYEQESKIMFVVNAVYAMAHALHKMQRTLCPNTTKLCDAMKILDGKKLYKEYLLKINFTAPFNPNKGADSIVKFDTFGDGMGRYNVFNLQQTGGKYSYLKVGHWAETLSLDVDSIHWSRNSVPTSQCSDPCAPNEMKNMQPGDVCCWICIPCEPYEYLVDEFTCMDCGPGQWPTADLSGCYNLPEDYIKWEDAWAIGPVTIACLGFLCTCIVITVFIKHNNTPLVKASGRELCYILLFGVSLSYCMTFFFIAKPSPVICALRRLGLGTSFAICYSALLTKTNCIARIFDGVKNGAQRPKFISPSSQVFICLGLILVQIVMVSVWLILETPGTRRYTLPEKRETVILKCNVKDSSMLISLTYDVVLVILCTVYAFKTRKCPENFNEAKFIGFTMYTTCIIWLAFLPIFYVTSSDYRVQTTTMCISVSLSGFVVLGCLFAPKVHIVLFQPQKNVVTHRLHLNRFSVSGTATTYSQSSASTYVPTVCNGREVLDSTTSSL
- PROTOCOL NOTES: mGlu3 in vitro GIRK thallium flux assay
- Format: cell-based
- CONDITION SET: NAM; test compound incubated 2.5 min before EC80 glutamate; HEK-293 GIRK cells
- Procedure: All cell culture reagents were purchased from Invitrogen Corp. (Carlsbad, Calif.) unless otherwise noted. Compound activity at the group II (mGlu2 and mGlu3) mGlus was assessed using thallium flux through GIRK channels. […] Cell plates and compound plates were loaded onto a kinetic imaging plate reader (FDSS 6000 or 7000; Hamamatsu Corporation, Bridgewater, N.J.). […] Data were analyzed using Excel (Microsoft Corp, Redmond, Wash.). […]
ENDPOINT LABEL: EC50

Provide measured EC50 value, entry: Cc1cc2c(cc1C(F)(F)F)NC(=O)CC(c1cccc(Oc3ccccc3)c1)N2 (stereo not shown)
> 10 µM

====

- SYSTEM UNDER TEST: mGlu2 receptor (Rattus norvegicus (Rat))
- Sequence (P31421 19-872): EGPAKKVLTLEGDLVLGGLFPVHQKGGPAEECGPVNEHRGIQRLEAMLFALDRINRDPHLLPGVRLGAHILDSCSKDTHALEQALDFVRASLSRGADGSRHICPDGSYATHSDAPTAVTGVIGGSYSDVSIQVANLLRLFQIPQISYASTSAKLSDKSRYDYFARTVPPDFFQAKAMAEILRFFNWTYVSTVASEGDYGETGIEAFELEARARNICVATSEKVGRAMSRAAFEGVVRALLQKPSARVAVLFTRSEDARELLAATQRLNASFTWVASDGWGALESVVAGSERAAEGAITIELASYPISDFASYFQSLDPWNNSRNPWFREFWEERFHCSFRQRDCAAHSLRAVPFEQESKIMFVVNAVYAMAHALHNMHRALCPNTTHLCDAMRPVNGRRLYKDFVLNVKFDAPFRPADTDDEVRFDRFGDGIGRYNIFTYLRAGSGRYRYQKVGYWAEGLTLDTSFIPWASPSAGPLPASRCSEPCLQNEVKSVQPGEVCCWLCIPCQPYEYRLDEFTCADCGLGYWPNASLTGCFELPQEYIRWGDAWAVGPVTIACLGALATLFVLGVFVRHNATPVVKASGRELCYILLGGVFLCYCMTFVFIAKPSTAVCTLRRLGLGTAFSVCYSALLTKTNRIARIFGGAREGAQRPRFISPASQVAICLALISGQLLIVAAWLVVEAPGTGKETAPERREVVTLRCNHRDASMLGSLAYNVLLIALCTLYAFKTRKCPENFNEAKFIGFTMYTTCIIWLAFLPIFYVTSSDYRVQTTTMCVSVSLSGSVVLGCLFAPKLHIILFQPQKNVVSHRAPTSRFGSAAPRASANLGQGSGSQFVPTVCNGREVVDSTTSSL
- PROTOCOL NOTES: mGlu2 in vitro GIRK thallium flux assay
- Type: cell-based
- CONDITION SET: NAM; test compound incubated 2.5 min before EC80 glutamate; HEK-293 GIRK cells; read-out: mGlu2 EC50 (μM) (2.5 min)
ENDPOINT LABEL: EC50

Provide measured EC50 value, entry: Cc1cc2c(cc1C(F)(F)F)NC(=O)CC(c1cccc(Oc3ccccc3)c1)N2 (stereo not shown) [Example 177]
> 10 µM

====

- PROTOCOL NOTES: Microsomal stability in vitro assay
- Assay type: in vitro ADME
- CONDITION SET: pooled rat liver microsomes, 4 μM compound, NADPH
ENDPOINT LABEL: Microsomal Stability, Percent Remaining @ 1 hour (%)
Write the answer as a number in %, unit excluded.

Provide measured Microsomal Stability, Percent Remaining @ 1 hour value, entry: O=C(O)c1cc(F)cc(-c2cccc(-c3nc(-c4ccco4)cc(C(F)(F)F)n3)c2)c1
82

Provide measured Microsomal Stability, Percent Remaining @ 1 hour value, entry: COc1ccc(-c2cc(C(F)(F)F)nc(-c3cccc(-c4ccc(F)c(C(=O)O)c4)c3)n2)cc1
92

Provide measured Microsomal Stability, Percent Remaining @ 1 hour value, entry: O=C(O)c1cc(F)cc(-c2cccc(-c3nsc(-c4ccoc4)n3)c2)c1
66

====

- PROTOCOL NOTES: Plasma stability in vitro assay
- Assay type: in vitro ADME
- CONDITION SET: heparinized rat plasma, 100 μM, 37.5° C.
ENDPOINT LABEL: Plasma Stability, Percent Remaining @ 1 hour (%)
Write the answer as a number in %, unit excluded.

Provide measured Plasma Stability, Percent Remaining @ 1 hour value, entry: N#Cc1cc(C2=Nc3ccc(C(F)(F)F)cc3NC(=O)C2)ccn1 [Example 184]
100

Provide measured Plasma Stability, Percent Remaining @ 1 hour value, entry: O=C(O)c1ccc(F)c(-c2cccc(-c3nc(-c4ccoc4)cc(C(F)(F)F)n3)c2)c1 [Example 114]
93

Provide measured Plasma Stability, Percent Remaining @ 1 hour value, entry: O=C(O)c1cc(-c2cccc(-c3csc(-c4ccccc4)n3)c2)ccc1F [Example 1]
93
